In this section we review reported inhibition values for a set of compounds.
# ASSAYED SYSTEM: Acetylcholinesterase (Homo sapiens) (UniProt P22303)
# Sequence (P22303 whole entry): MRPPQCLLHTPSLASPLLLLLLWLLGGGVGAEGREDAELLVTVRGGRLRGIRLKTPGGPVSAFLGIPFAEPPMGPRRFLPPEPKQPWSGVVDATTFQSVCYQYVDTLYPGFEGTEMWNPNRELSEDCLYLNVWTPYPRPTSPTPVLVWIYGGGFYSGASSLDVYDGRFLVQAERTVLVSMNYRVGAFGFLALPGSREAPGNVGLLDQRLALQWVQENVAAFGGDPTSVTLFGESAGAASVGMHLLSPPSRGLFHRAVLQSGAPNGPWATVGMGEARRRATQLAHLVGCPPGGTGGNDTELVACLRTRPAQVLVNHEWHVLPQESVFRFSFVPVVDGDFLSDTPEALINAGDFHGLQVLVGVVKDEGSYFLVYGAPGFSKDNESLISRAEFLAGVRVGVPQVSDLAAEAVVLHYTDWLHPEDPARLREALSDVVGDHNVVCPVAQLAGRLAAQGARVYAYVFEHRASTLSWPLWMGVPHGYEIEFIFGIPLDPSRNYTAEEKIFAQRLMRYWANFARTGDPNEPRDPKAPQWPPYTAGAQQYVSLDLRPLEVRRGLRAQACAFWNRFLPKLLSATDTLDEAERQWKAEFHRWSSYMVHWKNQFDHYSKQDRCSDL
# METHOD NOTES: Inhibition of acetylcholinesterase at 25 uM
Just the number please, in %, no unit attached.

// solved cases for inhibition follow
N#C/C(=C\c1cc(O)c(O)c([N+](=O)[O-])c1)C(=O)Nc1ccccc1Cl ... 0.95
COc1ccc(NC(=O)/C(C#N)=C/c2cc(O)c(O)c([N+](=O)[O-])c2)cc1 ... 4.64
N#C/C(=C\c1cc(O)c(O)c([N+](=O)[O-])c1)C(=O)Nc1cccc(Cl)c1 ... 4.37

Turning to the following compound.
What the record says about `N#C/C(=C\c1cc(O)c(O)c([N+](=O)[O-])c1)C(=O)N1CCOCC1` : inhibition is 3

# credit: ChEMBL document CHEMBL1153950
